- SYSTEM: HDAC1 (Homo sapiens (Human), UniProt Q13547)
- Sequence (Q13547 whole entry): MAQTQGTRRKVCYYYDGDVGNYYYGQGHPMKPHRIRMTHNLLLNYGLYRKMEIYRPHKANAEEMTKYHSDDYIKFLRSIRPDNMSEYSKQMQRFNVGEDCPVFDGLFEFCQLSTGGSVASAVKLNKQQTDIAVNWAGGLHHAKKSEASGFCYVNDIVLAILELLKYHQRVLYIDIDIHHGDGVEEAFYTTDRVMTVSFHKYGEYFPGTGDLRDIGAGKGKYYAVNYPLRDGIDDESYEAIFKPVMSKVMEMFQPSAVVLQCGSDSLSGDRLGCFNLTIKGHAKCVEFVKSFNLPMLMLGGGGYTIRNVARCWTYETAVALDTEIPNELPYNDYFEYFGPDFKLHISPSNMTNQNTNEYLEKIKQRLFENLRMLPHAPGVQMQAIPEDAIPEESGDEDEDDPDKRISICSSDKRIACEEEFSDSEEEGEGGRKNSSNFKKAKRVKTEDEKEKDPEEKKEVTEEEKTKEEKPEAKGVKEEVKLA
- PROCEDURE DETAILS: HDAC enzyme assay, HDAC1
- STUDY CONDITIONS: read-out: HDAC1 IC50
1.0 if IC50 is below 100 nM. 0.0 if not; exact matches included in 0.0.

Use the examples below as a reference point.
[[record]]
structure_string = "O=C(NO)c1cnc(NC2(c3ccc(F)cc3)CCCCC2)nc1"
class_name = 0.0

[[record]]
structure_string = "O=C(NO)c1cnc(NC2(c3ccccc3)CCC2)nc1"
class_name = 0.0

[[record]]
structure_string = "COc1cc(Nc2ncc(C(=O)NO)cn2)cc(C(F)(F)F)c1"
class_name = 0.0

[[record]]
structure_string = "COc1cccc(C2(Nc3ncc(C(=O)NO)cn3)CC2)c1"
class_name = 1.0


Next:
Is IC50 strictly under 100 nM for the entry O=C(NO)c1cnc(NCc2ccc(C(F)(F)F)cc2)nc1 ?
1.0

----------
- SYSTEM: HDAC2 (Homo sapiens (Human))
- PROCEDURE DETAILS: HDAC enzyme assay, HDAC2
- STUDY CONDITIONS: ratio HDAC2/HDAC6
MEASURED PARAMETER: HDAC2 fold over HDAC6 IC50 (selectivity for HDAC6)

[[record]]
structure_string = "O=C(NO)c1cnc(NC2(c3cccc(F)c3)CCOCC2)nc1"
assay_value = "(78x)"

[[record]]
structure_string = "COc1ccc(Nc2ncc(C(=O)NO)cn2)cc1"
assay_value = "(26x)"


----------
- SYSTEM: HDAC3 (Homo sapiens (Human))
- PROCEDURE DETAILS: HDAC enzyme assay, HDAC3
- STUDY CONDITIONS: read-out: HDAC3 IC50
MEASURED PARAMETER: IC50 (nM)
One number for each entry, in nM.

These recorded examples may help you get a feel for the data.
[[record]]
molecule = "O=C(NO)c1cnc(NCc2ccc(F)c(Cl)c2)nc1"
measured_parameter = "IC50"
quantity_unit = "nM"
assay_value = 43

[[record]]
molecule = "O=C(NO)c1cnc(NCCc2c(Cl)cccc2Cl)nc1"
measured_parameter = "IC50"
quantity_unit = "nM"
assay_value = 1750

[[record]]
molecule = "O=C(NO)c1cnc(Nc2c(F)c(F)cc(F)c2F)nc1"
measured_parameter = "IC50"
quantity_unit = "nM"
assay_value = 600

[[record]]
molecule = "O=C(NO)c1cnc(NC2(c3ccccc3C(F)(F)F)CC2)nc1"
measured_parameter = "IC50"
quantity_unit = "nM"
assay_value = 374


I'm hoping you can list IC50 for every molecule here, please.
1. CC(C)(Nc1ncc(C(=O)NO)cn1)c1ccc(F)cc1
2. O=C(NO)c1cnc(NC2(c3ccc4c(c3)OCO4)CC2)nc1
3. O=C(NO)c1cnc(NC23CC4CC(CC(C4)C2)C3)nc1

[1480, 49, 1080]

I'm hoping you can list IC50 for every molecule here, please.
1. CC(Nc1ncc(C(=O)NO)cn1)c1ccncc1 (stereo not shown)
2. O=C(NO)c1cnc(Nc2cc(Cl)cc(OC(F)(F)F)c2)nc1
3. O=C(NO)c1cnc(Nc2cc(Cl)cc(C(F)(F)F)c2)nc1

1. 135
2. 745
3. 830

----------
- SYSTEM: HDAC2 (Homo sapiens (Human), UniProt Q92769)
- Sequence (Q92769 whole entry): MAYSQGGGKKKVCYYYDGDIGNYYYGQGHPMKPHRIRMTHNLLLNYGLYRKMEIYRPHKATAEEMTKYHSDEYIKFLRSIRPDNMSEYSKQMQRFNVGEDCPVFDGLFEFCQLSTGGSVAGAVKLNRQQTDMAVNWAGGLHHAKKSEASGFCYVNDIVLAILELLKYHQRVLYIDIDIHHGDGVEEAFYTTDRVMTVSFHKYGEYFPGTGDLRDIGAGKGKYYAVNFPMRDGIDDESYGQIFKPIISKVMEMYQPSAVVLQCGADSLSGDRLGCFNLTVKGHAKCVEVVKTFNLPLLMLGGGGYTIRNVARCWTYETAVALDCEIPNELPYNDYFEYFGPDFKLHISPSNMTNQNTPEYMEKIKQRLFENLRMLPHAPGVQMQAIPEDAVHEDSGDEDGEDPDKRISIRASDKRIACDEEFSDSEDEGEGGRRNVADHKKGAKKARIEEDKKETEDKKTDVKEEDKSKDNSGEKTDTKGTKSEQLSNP
- PROCEDURE DETAILS: HDAC enzyme assay, HDAC2
- STUDY CONDITIONS: ratio HDAC2/HDAC6
MEASURED PARAMETER: HDAC2 fold over HDAC6 IC50 (selectivity for HDAC6)

[[record]]
structure_string = "O=C(NO)c1cnc(NC2(c3ccc(F)c(F)c3)CC2)nc1"
assay_value = "(9x)"


----------
- SYSTEM: HDAC2 (Homo sapiens (Human), UniProt Q92769)
- PROCEDURE DETAILS: HDAC enzyme assay, HDAC2
- STUDY CONDITIONS: read-out: HDAC2 IC50
MEASURED PARAMETER: IC50
Write the quantity with the unit trailing the number.

These recorded examples may help you get a feel for the data.
[[record]]
structure_string = "O=C(NO)c1cnc(NC2(c3cccs3)CCCCC2)nc1"
assay_value = "1600 nM"

[[record]]
structure_string = "O=C(NO)c1cnc(NC2(c3cc4ccccc4s3)CC2)nc1"
assay_value = "21 nM"

[[record]]
structure_string = "O=C(NO)c1cnc(NCCc2c[nH]c3ccccc23)nc1"
assay_value = "120 nM"

[[record]]
structure_string = "COc1ccc(Cl)cc1C1(Nc2ncc(C(=O)NO)cn2)CC1"
assay_value = "479 nM"

[[record]]
structure_string = "O=C(NO)c1cnc(NCc2ccccc2C(F)(F)F)nc1"
assay_value = "720 nM"


I'm hoping you can list IC50 for every compound here, please.
1. O=C(NO)c1cnc(NCc2ccc(F)cc2C(F)(F)F)nc1
2. O=C(NO)c1cnc(NC2(c3ccc(F)c(Cl)c3)CC2)nc1
3. O=C(NO)c1cnc(NCCc2c(Cl)cccc2Cl)nc1

1. 713 nM
2. 19 nM
3. 1800 nM

I'm hoping you can list IC50 for every compound here, please.
1. O=C(NO)c1cnc(NCc2cccs2)nc1
2. O=C(NO)c1cnc(Nc2cc(Cl)cc(C(F)(F)F)c2)nc1
3. O=C(NO)c1cnc(NCc2c(Cl)cccc2Cl)nc1
4. O=C(NO)c1cnc(NC2(c3cc(C(F)(F)F)cc(C(F)(F)F)c3)CC2)nc1
5. O=C(NO)c1cnc(NC(c2ccc(F)cc2)c2ccc(F)cc2)nc1
6. O=C(NO)c1cnc(NC2(c3ccccc3C(F)(F)F)CC2)nc1
7. O=C(NO)c1cnc(NC2(c3ccc(Cl)c(Cl)c3)CC2)nc1

["361 nM", "938 nM", "601 nM", "135 nM", "270 nM", "288 nM", "17 nM"]

I'm hoping you can list IC50 for every compound here, please.
1. O=C(NO)c1cnc(NCc2ccc(F)c(Cl)c2)nc1
2. CC(Nc1ncc(C(=O)NO)cn1)(c1ccc(F)cc1)c1ccc(F)cc1
3. Cc1ccc(C2(Nc3ncc(C(=O)NO)cn3)CC2)cc1
4. O=C(NO)c1cnc(NC2(c3ccc(C(F)(F)F)c(F)c3)CC2)nc1
5. O=C(NO)c1cnc(NC2(c3cc(C(F)(F)F)ccc3F)CC2)nc1
6. COc1cc(F)ccc1CNc1ncc(C(=O)NO)cn1
7. O=C(NO)c1cnc(Nc2cccc(Cl)c2)nc1

1: 30 nM; 2: 2460 nM; 3: 107 nM; 4: 21 nM; 5: 9 nM; 6: 338 nM; 7: 161 nM

I'm hoping you can list IC50 for every compound here, please.
1. O=C(NO)c1cnc(NCc2ccccc2Cl)nc1
2. CC(C)(Nc1ncc(C(=O)NO)cn1)c1cc(C(F)(F)F)cc(C(F)(F)F)c1

1. 226 nM
2. 2240 nM

----------
- SYSTEM: HDAC3 (Homo sapiens (Human), UniProt O15379)
- Sequence (O15379 whole entry): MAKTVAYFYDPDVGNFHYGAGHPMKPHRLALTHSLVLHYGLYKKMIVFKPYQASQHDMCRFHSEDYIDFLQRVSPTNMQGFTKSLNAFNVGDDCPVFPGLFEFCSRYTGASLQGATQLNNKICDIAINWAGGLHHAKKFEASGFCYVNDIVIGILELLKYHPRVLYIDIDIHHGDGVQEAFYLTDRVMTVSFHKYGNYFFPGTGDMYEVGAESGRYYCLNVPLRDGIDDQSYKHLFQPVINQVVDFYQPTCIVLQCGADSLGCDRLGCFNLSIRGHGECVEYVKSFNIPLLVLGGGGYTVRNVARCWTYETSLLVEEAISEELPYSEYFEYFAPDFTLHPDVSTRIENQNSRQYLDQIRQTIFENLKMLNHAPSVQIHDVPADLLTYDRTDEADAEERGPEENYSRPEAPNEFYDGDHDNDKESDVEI
- Sequence (Q9Y618 395-489 partner): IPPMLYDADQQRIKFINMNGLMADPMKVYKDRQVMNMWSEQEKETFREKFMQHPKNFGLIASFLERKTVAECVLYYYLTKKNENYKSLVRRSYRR
- PROCEDURE DETAILS: HDAC enzyme assay, HDAC3
- STUDY CONDITIONS: ratio HDAC3/HDAC6
MEASURED PARAMETER: HDAC3 fold over HDAC6 IC50 (selectivity for HDAC6)

[[record]]
structure_string = "O=C(NO)c1cnc(Nc2ccccc2)nc1"
system = "HDAC3 (Homo sapiens (Human), UniProt O15379)"
assay_value = "27x"

[[record]]
structure_string = "O=C(NO)c1cnc(NCc2ccc(-c3ccccc3)cc2)nc1"
system = "HDAC3 (Homo sapiens (Human), UniProt O15379)"
assay_value = "(8x)"


----------
- SYSTEM: HDAC1 (Homo sapiens (Human))
- PROCEDURE DETAILS: HDAC enzyme assay, HDAC1
- STUDY CONDITIONS: ratio HDAC1/HDAC6
MEASURED PARAMETER: HDAC1 fold over HDAC6 IC50 (selectivity for HDAC6)

[[record]]
structure_string = "O=C(NO)c1cnc(NCc2cnccn2)nc1"
assay_value = "(74x)"


----------
- SYSTEM: HDAC6 (Homo sapiens (Human), UniProt Q9UBN7)
- Sequence (Q9UBN7 whole entry): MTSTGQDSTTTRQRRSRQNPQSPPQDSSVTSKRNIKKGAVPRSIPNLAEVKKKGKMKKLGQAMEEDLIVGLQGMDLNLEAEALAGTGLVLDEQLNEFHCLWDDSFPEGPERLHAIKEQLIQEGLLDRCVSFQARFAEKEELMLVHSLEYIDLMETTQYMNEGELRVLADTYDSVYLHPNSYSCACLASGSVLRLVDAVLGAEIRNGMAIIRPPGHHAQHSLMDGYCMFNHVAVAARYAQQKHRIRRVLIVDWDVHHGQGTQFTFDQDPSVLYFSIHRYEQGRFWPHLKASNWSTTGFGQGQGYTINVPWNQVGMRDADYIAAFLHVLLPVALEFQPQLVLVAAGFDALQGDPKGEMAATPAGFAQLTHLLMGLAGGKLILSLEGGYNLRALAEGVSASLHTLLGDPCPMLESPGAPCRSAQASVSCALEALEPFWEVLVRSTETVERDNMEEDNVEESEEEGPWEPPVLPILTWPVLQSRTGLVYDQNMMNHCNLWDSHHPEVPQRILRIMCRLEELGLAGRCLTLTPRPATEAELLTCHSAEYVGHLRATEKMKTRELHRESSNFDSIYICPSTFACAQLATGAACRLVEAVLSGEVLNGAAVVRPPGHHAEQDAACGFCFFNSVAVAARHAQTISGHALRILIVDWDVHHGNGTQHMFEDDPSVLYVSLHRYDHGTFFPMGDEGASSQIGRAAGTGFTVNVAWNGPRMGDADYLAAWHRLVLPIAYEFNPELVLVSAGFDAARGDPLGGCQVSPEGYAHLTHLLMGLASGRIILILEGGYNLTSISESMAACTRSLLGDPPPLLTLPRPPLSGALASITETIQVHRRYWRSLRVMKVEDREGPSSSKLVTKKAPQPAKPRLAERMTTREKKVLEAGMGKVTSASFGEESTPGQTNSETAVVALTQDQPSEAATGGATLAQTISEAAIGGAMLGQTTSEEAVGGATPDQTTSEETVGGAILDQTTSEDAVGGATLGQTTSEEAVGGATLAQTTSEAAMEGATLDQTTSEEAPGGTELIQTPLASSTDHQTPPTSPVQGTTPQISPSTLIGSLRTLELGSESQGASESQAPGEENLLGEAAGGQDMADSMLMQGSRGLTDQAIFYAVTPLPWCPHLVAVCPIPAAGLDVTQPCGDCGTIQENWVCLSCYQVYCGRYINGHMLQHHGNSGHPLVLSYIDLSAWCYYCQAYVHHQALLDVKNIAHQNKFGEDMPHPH
- STUDY CONDITIONS: read-out: HDAC6 IC50
MEASURED PARAMETER: IC50 (nM)
Answers are plain numbers, in nM.

These recorded examples may help you get a feel for the data.
[[record]]
structure_string = "Cc1cc(C(C)(C)Nc2ncc(C(=O)NO)cn2)ccc1F"
quantity_unit = "nM"
assay_value = 4

[[record]]
structure_string = "O=C(NO)c1cnc(NC2(c3ccccc3C(F)(F)F)CC2)nc1"
quantity_unit = "nM"
assay_value = 2

[[record]]
structure_string = "O=C(NO)c1cnc(NC2(c3cccc(F)c3)CCCCC2)nc1"
quantity_unit = "nM"
assay_value = 7

[[record]]
structure_string = "O=C(NO)c1cnc(NC23CC4CC(CC(C4)C2)C3)nc1"
quantity_unit = "nM"
assay_value = 9


Please report IC50 with HDAC6 (Homo sapiens (Human), UniProt Q9UBN7) for item Cc1ccc(C2(Nc3ncc(C(=O)NO)cn3)CC2)cc1 .
3

Data provenance: patent US8614223B2
